System: Plasmodium berghei
PROTOCOL_NOTES: Screen against P. berghei liver stage (PbLuc), transformed with Luciferase, at 10uM
Assay type: functional, HepG2
CONDITION_NOTES: tested at 10 uM
The whole screen tested about 69,000 compounds, of which about 8,600 (12%) showed an effect of 50% or more. What follows is part of a selection rich in strong results, with near analogues and random picks from the rest.
Parameter threshold = 50%. Response is 1 when INHIBITION meets or exceeds it, else -1.

// below: answered compounds
{"COMPOUND": "CCc1nnc(CN2CCC(C3CCCCCN3C(C)=O)CC2)o1 (stereo unspecified)", "CLASSIFICATION": -1}
{"COMPOUND": "CC(=O)N1CCCCCC1C1CCN(Cc2nc(C(C)C)no2)CC1 (stereo unspecified)", "CLASSIFICATION": -1}
{"COMPOUND": "CC(=O)N1CCCCCC1C1CCN(Cc2nc(C3CC3)no2)CC1 (stereo unspecified)", "CLASSIFICATION": 1}
{"COMPOUND": "CC(=O)N1CCN(Cc2nnc(C(C)(C)C)o2)CC1", "CLASSIFICATION": -1}
{"COMPOUND": "CC(=O)NCC1CCN(Cc2nc(C3CC3)no2)CC1", "CLASSIFICATION": 1}

Field: next compound
Incoming: API: above_or_equal(metric=INHIBITION, cutoff=50%) for item COc1cc(Cl)ccc1C(=O)NCc1nncn1C
Outgoing: 1
